test system: KM12; test: NCI tumour cell line growth inhibition, 48 h
Active and inactive are the calls of the source. Rule as the data show it: active = GI50 up to about 1.1 µM and inactive = higher.
Measurement Kind: GI50

[in] # input compound: Clc1cc2n[se]nc2cc1Cl ; wanted: its GI50
[out] > 100 µM (inactive)

[in] Okay, and COc1ccc2cc(-c3ccc(OC)c(OC)c3)c(=O)oc2c1 ?
[out] > 100 µM (inactive)

[in] Okay, and Cc1oc(N)c(S(=O)(=O)c2cc3ccccc3[n+]([O-])c2N)c1C ?
[out] > 100 µM (inactive)

[in] Okay, and C/C(CC1C2CCCC1C2)=N\NC(N)=O (stereo not given) ?
[out] > 100 µM (inactive)

[in] Okay, and Fc1ccccc1C1SCc2nc3cc4ccccc4cc3n21 (stereo not given) ?
[out] > 100 µM (inactive)

[in] Okay, and CN(C)c1ccc(-c2c(C#N)c(O)n(NS(=O)(=O)c3ccccc3)c(=O)c2C#N)cc1 ?
[out] > 100 µM (inactive)

[in] Okay, and CCOc1cc2c(NCCCN(CCO)CCO)ncnc2c(OCC)c1OCC ?
[out] > 100 µM (inactive)

[in] Okay, and COc1cc(C2c3cc4c(cc3[C@@H](NCCN3CCOCC3)C3COC(=O)[C@H]23)OCO4)cc(OC)c1O (stereo not given in full) ?
[out] 4.01 µM (inactive)

[in] Okay, and CC1CN=C(N(C(=O)Nc2ccc(Cl)c(Cl)c2)c2ccccc2)S1 (stereo not given) ?
[out] 32.1 µM (inactive)

[in] Okay, and CC1=C2CC(C)(C)CC(=O)C2(C)CCC1=O (stereo not given) ?
[out] > 100 µM (inactive)

[in] Okay, and CCC(=O)NC(Nc1cc(C)on1)(C(F)(F)F)C(F)(F)F ?
[out] > 100 µM (inactive)

[in] Okay, and CCOC(=O)/C(=C/c1cccc(OC)c1)N(CC)CC ?
[out] > 100 µM (inactive)

[in] Okay, and COC(=O)c1c(O)ccc2[nH]c3c(O)c4ccccc4cc3c12 ?
[out] 16 µM (inactive)

[in] Okay, and COC(=O)C1[C@@H](C(=O)OC)C(=O)O[C@H]1c1cc(OC)c(OC)c(OC)c1 (stereo not given in full) ?
[out] > 100 µM (inactive)

[in] Okay, and COc1ccc(C2C(C#N)=C(S)N(C3OC(CO)C(O)C(O)C3O)C(C)=C2C(C)=O)cc1 (stereo not given) ?
[out] > 100 µM (inactive)

Source: ChEMBL document CHEMBL1201862
